Quick reference: EC50 of the listed items.
Molecular target: recombinant human nicotinic acid receptor (NAR) (Homo sapiens, UniProt Q8TDS4)
Sequence (Q8TDS4 whole entry): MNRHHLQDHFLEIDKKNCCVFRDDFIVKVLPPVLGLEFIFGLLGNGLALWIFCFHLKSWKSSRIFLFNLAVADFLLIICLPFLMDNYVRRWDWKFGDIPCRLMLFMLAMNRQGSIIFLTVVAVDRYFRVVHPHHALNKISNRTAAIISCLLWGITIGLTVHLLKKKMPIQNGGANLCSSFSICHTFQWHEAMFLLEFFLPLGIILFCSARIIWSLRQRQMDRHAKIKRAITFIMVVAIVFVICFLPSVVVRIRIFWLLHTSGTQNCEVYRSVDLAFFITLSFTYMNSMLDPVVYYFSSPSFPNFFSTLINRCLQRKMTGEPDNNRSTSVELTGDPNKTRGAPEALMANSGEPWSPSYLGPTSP
Assay: Nicotinic Acid Receptor Assay: inhibition of forskolin-stimulated cAMP accumulation in CHO cells (MesoScale Discovery cAMP kit)
Type: cell-based
Settings: CHO cells expressing recombinant human NAR; forskolin-stimulated cAMP; read-out: NA EC50 camp
Method: The nicotinic acid receptor agonist activity of the inventive compounds was determined by following the inhibition of forskolin-stimulated cAMP accumulation in cells using the MesoScale Discovery cAMP detection kit following the manufacture's protocol. […] Prior to reading, 10 μL of read buffer was added to each well, and the plate was read in a Sector 6000 plate imager. […]

| compound | target-entity | EC50 |
| --- | --- | --- |
| CCc1cc(=O)oc2nc(OCc3cccc(-c4ccc(F)cc4)c3)[nH]c(=O)c12 [Compound 566] | recombinant human nicotinic acid receptor (NAR) (Homo sapiens, UniProt Q8TDS4) | > 1000 nM |
| O=c1[nH]c(=O)c2c(CCC34CC5CC(CC(C5)C3)C4)cc(=O)oc2[nH]1 [Compound 215] | recombinant human nicotinic acid receptor (NAR) (Homo sapiens, UniProt Q8TDS4) | > 1000 nM |
| CCc1cc(=O)oc2nc(OC[C@H]3CN([C@H](C)c4ccccc4)C(=O)O3)[nH]c(=O)c12 [Compound 613] | recombinant human nicotinic acid receptor (NAR) (Homo sapiens, UniProt Q8TDS4) | 100 to 1000 nM |
| CCOC(=O)Cn1cc(CCCc2cc(=O)oc3[nH]c(=O)[nH]c(=O)c23)nn1 [Compound 250] | recombinant human nicotinic acid receptor (NAR) (Homo sapiens, UniProt Q8TDS4) | > 1000 nM |

---

Quick reference: EC50 of the listed items.
Biological target: recombinant human nicotinic acid receptor (NAR) (Homo sapiens, UniProt Q8TDS4)
Test: Nicotinic Acid Receptor Assay: inhibition of forskolin-stimulated cAMP accumulation in CHO cells (MesoScale Discovery cAMP kit)
Format: cell-based
Conditions: CHO cells expressing recombinant human NAR; forskolin-stimulated cAMP; read-out: NA EC50 camp

| molecule | EC50 |
| --- | --- |
| CCC(CC)Cc1cc(=O)oc2[nH]c(=O)[nH]c(=O)c12 [Compound 267] | > 1 µM |
| CCc1cc(=O)oc2nc(OCc3ccccc3-c3cccc(COC)c3)[nH]c(=O)c12 [Compound 549] | 0.1 to 1 µM |
| CCc1cc(=O)oc2nc(OCc3ccnc(NC(=O)C(C)(C)C)c3)[nH]c(=O)c12 [Compound 653] | > 1 µM |
| CCc1cc(=O)oc2nc(OCCOc3ccc(Br)cc3)[nH]c(=O)c12 [Compound 600] | > 1 µM |
| O=c1cc(CCCC2CC2)c2c(=O)n(C3CCC3)c(=O)[nH]c2o1 [Compound 224] | 1e-06 to 0.1 µM |
| O=c1[nH]c(=O)c2c(CCCC3CCC3)cc(=O)oc2[nH]1 [Compound 286] | 1e-06 to 0.1 µM |
| O=c1cc(Cc2ccccc2)c2c(=O)[nH]c(OCc3ccccc3)nc2o1 [Compound 627] | > 1 µM |
| CCc1noc(C)c1COc1nc2oc(=O)cc(CCC3CCCC3)c2c(=O)[nH]1 [Compound 689] | 0.1 to 1 µM |
| O=c1[nH]c(=O)c2c(CCC3CCC3)c(-c3ccc(F)cc3)c(=O)oc2[nH]1 [Compound 700] | > 1 µM |
| CCCCc1cc(=O)oc2nc(OCc3cc[n+]([O-])cc3)[nH]c(=O)c12 [Compound 681] | > 1 µM |
| CC1CCC(Cc2cc(=O)oc3[nH]c(=O)n(C4CCC4)c(=O)c23)CC1 (centres unmarked) [Compound 246] | > 1 µM |
| CCCCc1c(-c2ccc(NC(C)=O)cc2)c(=O)oc2[nH]c(=O)[nH]c(=O)c12 [Compound 710] | > 1 µM |
| CCCCCc1cc(=O)oc2nc(ONC(=O)OCC)[nH]c(=O)c12 [Compound 695] | 1e-06 to 0.1 µM |
| CC(=O)Nc1ccc(-c2c(CCC3CCC3)c3c(=O)[nH]c(=O)[nH]c3oc2=O)cc1 [Compound 704] | > 1 µM |
| CCc1cc(=O)oc2nc(OCc3ccccc3-c3cccc(C(=O)NC4CC4)c3)[nH]c(=O)c12 [Compound 553] | > 1 µM |
| CCc1cc(=O)oc2nc(OCc3cc(C)nn3CC)[nH]c(=O)c12 [Compound 678] | 0.1 to 1 µM |
| CCc1cc(=O)oc2nc(OCc3ccccc3-c3ccc(CO[Si](C)(C)C(C)(C)C)cc3)[nH]c(=O)c12 [Compound 651] | 0.1 to 1 µM |
